# Assay explanation: serotonin-gated TRPC4 signal block – cell-based, second counter screen, HEK293 TRPC4/5HT1a, Fluo-4, counter-screen for TRPC4 inhibitor project, confirmation (AID 434978)
# Condition notes: Fluo-4 calcium flux, at 10 µM, serotonin added to trigger calcium flux
Activity calls are given as the source filed them.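 The calls were made as follows: active = primary screen active whose calcium signal fell more than 3 SD beyond the full-serotonin control mean in both duplicate plates; inactive = the rest.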
Outcomes: active, inactive

{"Compound": "Cc1cc(S(=O)(=O)NC2CCN(Cc3ccccc3)CC2)c(C)cc1Cl", "Assigned class": "inactive"}
{"Compound": "CCOC(=O)c1sc2c(c1C)c(=O)n(CCO)c(=O)n2Cc1ccccc1", "Assigned class": "inactive"}
{"Compound": "O=C(CCCSc1nc2ccccc2[nH]1)NCc1ccccc1Cl", "Assigned class": "active"}
{"Compound": "COc1ccc(C(CNC(=O)c2ccccc2SC)N(C)C)cc1 (stereo not given)", "Assigned class": "inactive"}
{"Compound": "Cc1cc(C(C)(C)C)cc(S(=O)(=O)Nc2cccc(C(=O)O)c2)c1C", "Assigned class": "inactive"}
{"Compound": "NC(=O)C(c1cccc(Cl)c1)c1ncc(C(F)(F)F)cc1Cl (stereo not given)", "Assigned class": "inactive"}
{"Compound": "COc1ccc(CNCC(O)(c2ccccc2)c2ccccc2)cc1OC", "Assigned class": "inactive"}
{"Compound": "CNc1nc(N2CCc3ccccc32)ncc1F", "Assigned class": "inactive"}
{"Compound": "O=[N+]([O-])c1cc(C(F)(F)F)ccc1N1CCCNCC1", "Assigned class": "inactive"}
{"Compound": "Fc1ccccc1COc1ccc(Br)cc1CNCC1CCCO1 (stereo not given)", "Assigned class": "active"}
